Entry source: patent US9828379B2

Entries and their inhibition at 5 mg/kg values follow.
# tested target: Mouse brain MAGL (Mus musculus, UniProt O35678)
# Construct: from tissue; host or cells: brain of wild-type C57Bl/6J mice dosed by oral gavage
# Sequence (O35678 1-303): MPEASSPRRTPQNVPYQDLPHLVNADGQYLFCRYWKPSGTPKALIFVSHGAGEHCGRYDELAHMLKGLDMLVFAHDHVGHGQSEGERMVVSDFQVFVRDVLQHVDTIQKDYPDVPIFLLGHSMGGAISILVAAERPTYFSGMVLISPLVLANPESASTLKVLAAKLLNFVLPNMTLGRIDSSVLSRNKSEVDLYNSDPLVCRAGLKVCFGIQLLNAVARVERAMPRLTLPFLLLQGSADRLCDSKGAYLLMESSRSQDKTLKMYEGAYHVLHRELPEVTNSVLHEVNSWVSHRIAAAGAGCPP
# protocol summary: Mouse brain proteomes from inhibitor treated mice (oral gavage, ABPP analysis)
# Assay type: in vivo
# run conditions: p.o., sacrificed 4 h following administration

Known results for molecules:
> print(dat)
                                   molecule                             tested.target     result
1  CC(C)c1cc(CN2CC3CN(C(=O)OC(C(F)(F)F)C(F)(F)F)CC3C2)n(C2CCOCC2)n1 (centres unmarked)  Mouse brain MAGL (Mus musculus, UniProt O35678)      ≥ 75%
2  CCn1cc(CN2CC3CN(C(=O)OC(C(F)(F)F)C(F)(F)F)CC3C2)c(C(=O)NCc2ccccc2)n1 (centres unmarked)  Mouse brain MAGL (Mus musculus, UniProt O35678)  25 to 75%
3  CCn1cc(CN2CC3CN(C(=O)OC(C(F)(F)F)C(F)(F)F)CC3C2)c(-c2ccc(N3CCCC3)cc2)n1 (centres unmarked)  Mouse brain MAGL (Mus musculus, UniProt O35678)  25 to 75%
4  CC(=O)N1CC2(CCN(c3ccccc3CN3CC4CN(C(=O)OC(C(F)(F)F)C(F)(F)F)CC4C3)C2)C1 (centres unmarked)  Mouse brain MAGL (Mus musculus, UniProt O35678)      ≤ 25%
5  O=C(OC(C(F)(F)F)C(F)(F)F)N1CC2CN(Cc3cccc(N4CCC5(CCOC5)C4)c3C(F)(F)F)CC2C1 (centres unmarked)  Mouse brain MAGL (Mus musculus, UniProt O35678)      ≤ 25%
6  O=C(OC(C(F)(F)F)C(F)(F)F)N1CC2CN(Cc3ccc(Cl)cc3N3CCC(C(=O)N4CCCC4)CC3)CC2C1 (centres unmarked)  Mouse brain MAGL (Mus musculus, UniProt O35678)      ≤ 25%
7  O=C(OC(C(F)(F)F)C(F)(F)F)N1CC2CN(Cc3cccc(C(F)(F)F)c3N3CCOCC3)CC2C1 (centres unmarked)  Mouse brain MAGL (Mus musculus, UniProt O35678)      ≥ 75%
8  CCn1cc(CN2CC3CN(C(=O)OC(C(F)(F)F)C(F)(F)F)CC3C2)c(-c2ccccc2N2CCC2)n1 (centres unmarked)  Mouse brain MAGL (Mus musculus, UniProt O35678)      ≥ 75%

Given the molecule CC(C)n1cc(CN2CC3CN(C(=O)OC(C(F)(F)F)C(F)(F)F)CC3C2)c(-c2ccccc2Cl)n1 (centres unmarked) and test system Mouse brain MAGL (Mus musculus, UniProt O35678), the measured inhibition at 5 mg/kg is 25 to 75%

Given the molecule Cn1cc(CN2CC3CN(C(=O)OC(C(F)(F)F)C(F)(F)F)CC3C2)c(-c2ccccc2)n1 (centres unmarked) and test system Mouse brain MAGL (Mus musculus, UniProt O35678), the measured inhibition at 5 mg/kg is 25 to 75%

====

# tested target: UniProtKB O08914
# Sequence (O08914 whole entry): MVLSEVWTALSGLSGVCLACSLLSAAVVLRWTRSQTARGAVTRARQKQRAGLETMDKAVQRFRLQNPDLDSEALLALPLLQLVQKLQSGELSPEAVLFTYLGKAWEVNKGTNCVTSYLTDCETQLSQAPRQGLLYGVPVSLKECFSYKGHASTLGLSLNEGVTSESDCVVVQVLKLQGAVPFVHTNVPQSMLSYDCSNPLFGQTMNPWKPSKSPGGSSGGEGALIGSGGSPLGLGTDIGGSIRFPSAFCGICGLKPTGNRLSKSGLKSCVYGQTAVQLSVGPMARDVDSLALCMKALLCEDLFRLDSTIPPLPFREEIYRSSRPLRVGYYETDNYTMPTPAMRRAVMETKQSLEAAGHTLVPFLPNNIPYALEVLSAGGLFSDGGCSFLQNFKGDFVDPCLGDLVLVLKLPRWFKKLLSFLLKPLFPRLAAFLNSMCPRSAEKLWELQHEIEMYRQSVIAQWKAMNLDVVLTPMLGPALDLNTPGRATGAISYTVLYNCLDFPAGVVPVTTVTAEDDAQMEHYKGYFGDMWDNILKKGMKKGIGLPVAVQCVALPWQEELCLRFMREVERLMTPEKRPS
# protocol summary: In vitro competitive activity-based protein profiling (Table 2, % inhibition at 1 μM)
# Format: biochemical
# run conditions: read-out: % Inhibition at 1 μM FAAH
Entries and their inhibition at 1 µM values follow.

Known results for molecules:
> print(dat)
                                   molecule     tested.target      assay.endpoint     result
1  O=C(OC(C(F)(F)F)C(F)(F)F)N1CC2CN(Cc3ccc(C(F)(F)F)cc3N3CC4COCC4C3)CC2C1 (stereo not shown)  UniProtKB O08914  inhibition at 1 µM      < 25%
2  O=C(OC(C(F)(F)F)C(F)(F)F)N1CC2CN(Cc3cccc(N4CCC5(CCOC5)C4)c3Cl)CC2C1 (stereo not shown)  UniProtKB O08914  inhibition at 1 µM  25 to 75%
3  O=C(ON1C(=O)CCC1=O)N1CC2CN(Cc3ccc(Cl)cc3N3Cc4cccnc4C3)CC2C1 (stereo not shown)  UniProtKB O08914  inhibition at 1 µM  25 to 75%

Next molecule, inhibition at 1 µM to be filled in.
Measured inhibition at 1 µM, CC1COCCN1c1ccc(CN2CC3CN(C(=O)OC(C(F)(F)F)C(F)(F)F)CC3C2)c(F)c1 (stereo not shown) : 25 to 75%

====

# tested target: ABHD6 (Mus musculus)
# protocol summary: In vitro competitive activity-based protein profiling (Table 2, % inhibition at 1 μM)
# Type: biochemical
# run conditions: read-out: % Inhibition at 1 μM ABHD6
# Procedure: After 30 min, FP—Rh (1.0 μL, 50 μM in DMSO) was added and the mixture was incubated for another 30 min at 37° C. Reactions were quenched with SDS loading buffer (50 μL-4×) and run on SDS-PAGE. Following gel imaging, serine hydrolase activity was determined by measuring fluorescent intensity of gel bands corresponding to MAGL, ABHD6 and FAAH using ImageJ 1.43 u software. […]
Entries and their inhibition at 1 µM values follow.

Known results for molecules:
> print(dat)
                                   molecule  result
1  CCn1ncc(CN2CC3CN(C(=O)OC(C(F)(F)F)C(F)(F)F)CC3C2)c1C(=O)NCc1ccccc1 (stereo not drawn)   > 75%
2  CC1COCCN1c1ccc(CN2CC3CN(C(=O)ON4C(=O)CCC4=O)CC3C2)c(Cl)c1 (stereo not drawn)   < 25%

Next molecule, inhibition at 1 µM to be filled in.
Measured inhibition at 1 µM, Cc1cccc(CN2CC3CN(C(=O)OC(C(F)(F)F)C(F)(F)F)CC3C2)c1N1CCN(C)CC1 (stereo not drawn) : < 25%

====

Entries and their inhibition at 1 µM values follow.
# tested target: ABHD6 (Mus musculus)
# Sequence (Q8R2Y0 1-336): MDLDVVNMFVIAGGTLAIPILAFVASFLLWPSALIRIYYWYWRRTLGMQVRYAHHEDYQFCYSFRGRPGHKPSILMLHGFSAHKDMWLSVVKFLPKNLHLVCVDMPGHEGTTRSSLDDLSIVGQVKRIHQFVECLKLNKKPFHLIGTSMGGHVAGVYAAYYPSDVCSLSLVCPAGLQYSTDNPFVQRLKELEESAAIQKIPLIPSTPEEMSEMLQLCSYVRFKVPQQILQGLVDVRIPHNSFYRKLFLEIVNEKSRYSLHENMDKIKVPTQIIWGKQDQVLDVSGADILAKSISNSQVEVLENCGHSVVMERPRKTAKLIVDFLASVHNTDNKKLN
# protocol summary: In vitro competitive activity-based protein profiling (Table 2, % inhibition at 1 μM)
# Format: biochemical
# run conditions: read-out: % Inhibition at 1 μM ABHD6

> print(dat)
                                   compound     result
1  CC(C)c1ccc(CN2CC3CN(C(=O)OC(C(F)(F)F)C(F)(F)F)CC3C2)c(N2CCOCC2)c1 (stereo not shown) [Example 22]      < 25%
2  CCn1cc(CN2CC3CN(C(=O)OC(C(F)(F)F)C(F)(F)F)CC3C2)c(-c2ccncc2)n1 (stereo not shown) [Example 72]  25 to 75%
3  CCn1cc(CN2CC3CN(C(=O)OC(C(F)(F)F)C(F)(F)F)CC3C2)c(-c2ccccc2N2CCCCC2)n1 (stereo not shown) [Example 130]      < 25%
4  O=C(ON1C(=O)CCC1=O)N1CC2CN(Cc3ccc(C(=O)N4CCOCC4)cc3Cl)CC2C1 (stereo not shown) [Example 163]      < 25%
5  CC(C)c1cc(CN2CC3CN(C(=O)OC(C(F)(F)F)C(F)(F)F)CC3C2)n(C2CCOCC2)n1 (stereo not shown) [Example 62]  25 to 75%
6  O=C(OC(C(F)(F)F)C(F)(F)F)N1CC2CN(Cc3cc(CN4CCOCC4)ccc3OC(F)(F)F)CC2C1 (stereo not shown) [Example 188]      < 25%
7  Cc1c(CN2CC3CN(C(=O)OC(C(F)(F)F)C(F)(F)F)CC3C2)cccc1N1CCOCC1 (stereo not shown) [Example 47]  25 to 75%
8  O=C(OC(C(F)(F)F)C(F)(F)F)N1CC2CN(Cc3cc(CN4CCCC4)ccc3OC(F)(F)F)CC2C1 (stereo not shown) [Example 190]      < 25%

Measured inhibition at 1 µM, O=C(ON1C(=O)CCC1=O)N1CC2CN(Cc3ccc(N4CCOCC4)cc3Cl)CC2C1 (stereo not shown) [Example 80] : < 25%

Measured inhibition at 1 µM, CC(=O)N1CCN(c2ccc(CN3CC4CN(C(=O)ON5C(=O)CCC5=O)CC4C3)c(Cl)c2)CC1 (stereo not shown) [Example 103] : < 25%

Measured inhibition at 1 µM, CC(=O)N1CCN(c2cc(Cl)ccc2CN2CC3CN(C(=O)ON4C(=O)CCC4=O)CC3C2)CC1 (stereo not shown) [Example 96] : < 25%

Measured inhibition at 1 µM, Cc1cccc(-c2cc(CN3CC4CN(C(=O)OC(C(F)(F)F)C(F)(F)F)CC4C3)n(C)n2)c1 (stereo not shown) [Example 196] : < 25%

Measured inhibition at 1 µM, O=C(OC(C(F)(F)F)C(F)(F)F)N1CC2CN(Cc3ccc(F)cc3N3CCCC3)CC2C1 (stereo not shown) [Example 15] : < 25%

Measured inhibition at 1 µM, CCn1cc(CN2CC3CN(C(=O)OC(C(F)(F)F)C(F)(F)F)CC3C2)c(-c2cccc(N3CCCCC3)c2)n1 (stereo not shown) [Example 132] : < 25%

Measured inhibition at 1 µM, O=C(ON1C(=O)CCC1=O)N1CC2CN(Cc3ccc(Cl)cc3N3CCOCC3)CC2C1 (stereo not shown) [Example 93] : 25 to 75%

Measured inhibition at 1 µM, O=C(ON1C(=O)CCC1=O)N1CC2CN(Cc3ccc(Cl)cc3N3CCC4(CCNC4=O)CC3)CC2C1 (stereo not shown) [Example 112] : < 25%

Measured inhibition at 1 µM, O=C(ON1C(=O)CCC1=O)N1CC2CN(C(c3ccc(Cl)cc3)c3ccc(Cl)cc3)CC2C1 (stereo not shown) [Example 83] : < 25%

Measured inhibition at 1 µM, CC(C)c1cc(CN2CC3CN(C(=O)OC(C(F)(F)F)C(F)(F)F)CC3C2)n(C2CCCCC2)n1 (stereo not shown) [Example 61] : 25 to 75%

Measured inhibition at 1 µM, O=C(OC(C(F)(F)F)C(F)(F)F)N1CC2CN(Cc3ccc(N4CCOCC4)cc3Cl)CC2C1 (stereo not shown) [Example 2] : < 25%

Measured inhibition at 1 µM, CC(C)n1cc(CN2CC3CN(C(=O)ON4C(=O)CCC4=O)CC3C2)c(-c2ccccc2Cl)n1 (stereo not shown) [Example 118] : 25 to 75%
